test system: RPMI-8226; experiment: Cytotoxic activity against human RPMI8226 cells after 72 hrs by MTS assay; assay type: functional, cell-based; conditions: RPMI-8226, 72 h
pIC50: −log10 of the molar value.
Given measured pIC50, output MET if it is greater than or equal to 6 and NOT MET if not.

{"molecule": "CC(C)C[C@H](NC(=O)[C@H](Cc1ccccc1)NC(=O)c1cnccn1)B(O)O [BORTEZOMIB]", "testedOn": "RPMI-8226", "assignedCategory": "MET"}
{"molecule": "CC(C)C[C@H](NC(=O)[C@H](Cc1ccccc1)NC(=O)C[C@@H](NC(=O)c1ccc(C(F)(F)F)cc1)c1ccccc1)C(=O)[C@@]1(C)CO1", "testedOn": "RPMI-8226", "assignedCategory": "MET"}
{"molecule": "CC(C)C[C@H](NC(=O)[C@H](Cc1ccccc1)NC(=O)CC(NC(=O)c1ccc(C(F)(F)F)cc1)c1ccccc1)C(=O)[C@@]1(C)CO1 (stereo not given in full)", "testedOn": "RPMI-8226", "assignedCategory": "MET"}
{"molecule": "CC(C)C[C@H](NC(=O)[C@H](Cc1ccccc1)NC(=O)CC(NC(=O)c1cccnc1)c1ccccc1)C(=O)[C@@]1(C)CO1 (stereo not given in full)", "testedOn": "RPMI-8226", "assignedCategory": "NOT MET"}
{"molecule": "CC(C)C[C@H](NC(=O)[C@H](Cc1ccccc1)NC(=O)CC(NC(=O)c1ccc(C#N)cc1)c1ccccc1)C(=O)[C@@]1(C)CO1 (stereo not given in full)", "testedOn": "RPMI-8226", "assignedCategory": "MET"}
